Tested on: CCRF-CEM human leukemia cells
Test: Inhibition of tumor cell growth, CCRF-CEM human leukemia
Format: cell-based
Settings: Homo sapiens; CCRF-CEM; value marked *: corrected for the presence of the d-enantiomer of methyleneglutamate; duplicate experiments; read-out: I50, inhibition of tumor cell growth, CCRF-CEM human leukemia (*)
Give measured pIC50 for each item. Keep answers brief.
Scale note: pIC50 = -log10(concentration in M).

Task: Reported pIC50, molecule C=C(CC(NC(=O)c1ccc(CCc2cnc3nc(N)nc(N)c3n2)cc1)C(=O)O)C(=O)O (centres unmarked) : ____
Result: 8.30

Task: Same again, this time with C=C(CC(NC(=O)c1ccc(C(CC)Cc2cnc3nc(N)nc(N)c3n2)cc1)C(=O)O)C(=O)O (centres unmarked)
Result: 8.22

###

Test system: H35 hepatoma cells (folinic acid transport)
Assay: Inhibition of folinic acid transport to H35 hepatoma cells
Format: cell-based
Settings: 0.25 h; Folinic acid 2 μM, 15 min uptake; read-out: I50, inhibition of folinic acid transport to H35 hepatoma cells
Give measured pIC50 for each item. Keep answers brief.
Scale note: pIC50 = -log10(concentration in M).

Task: Reported pIC50, compound C=C(CC(NC(=O)c1ccc(C(CC)Cc2cnc3nc(N)nc(N)c3n2)cc1)C(=O)O)C(=O)O (stereo not drawn) : ____
Result: 8.52

Task: Same again, this time with C=C(CC(NC(=O)c1ccc(CCc2cnc3nc(N)nc(N)c3n2)cc1)C(=O)O)C(=O)O (stereo not drawn)
Result: 8.40

Task: Same again, this time with CN(Cc1cnc2nc(N)nc(N)c2n1)c1ccc(C(=O)N[C@@H](CCC(=O)O)C(=O)O)cc1 [Methotrexate, reference compound]
Result: 7.74

###

Give measured pIC50 for each item. Keep answers brief.
Biological target: human dihydrofolate reductase (Homo sapiens, UniProt P00374)
Construct: Pure human dihydrofolate reductase from lymphoblastoid cells were used; endogenous in cells
Sequence (P00374 whole entry): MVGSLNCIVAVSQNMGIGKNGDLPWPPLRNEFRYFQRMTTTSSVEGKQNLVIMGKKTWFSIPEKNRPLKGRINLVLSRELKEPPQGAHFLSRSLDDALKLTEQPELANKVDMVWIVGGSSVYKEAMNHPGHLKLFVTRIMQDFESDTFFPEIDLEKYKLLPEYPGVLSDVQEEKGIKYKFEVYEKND
Assay: Inhibition of dihydrofolate reductase
Details: pure human enzyme from lymphoblastoid cells
Experimental: Pure human dihydrofolate reductase from lymphoblastoid cells were used. The enzymatic assay was performed as described by Pastore, Plante and Kisliuk in Methods in Enzymology 34:281 (1974).
Scale note: pIC50 = -log10(concentration in M).

Task: Reported pIC50, compound Nc1nc(N)c2nc(CCc3ccc(C(=O)NC(C(=O)O)C(O)CC(=O)O)cc3)cnc2n1 (stereo not drawn) : ____
Result: 7.48

Task: Same again, this time with C=C(CC(NC(=O)c1ccc(CCc2cnc3nc(N)nc(N)c3n2)cc1)C(=O)O)C(=O)O (stereo not drawn)
Result: 7.52

Task: Same again, this time with C=C(CC(NC(=O)c1ccc(C(CC)Cc2cnc3nc(N)nc(N)c3n2)cc1)C(=O)O)C(=O)O (stereo not drawn)
Result: 7.49

Just for reference, patent US4996207A is where these values come from.
